meta.source: paper PMC6321168

protocol-description: Urinary excretion study in rats after oral NS, SF or CNS (LC–MS/MS)
Format: in vivo
experimental-parameters: rat urine, oral CNS 110 mg/kg, 96 h
readout: Excretion amount (µg)

[[record]]
compound = "CC(C)=CCC[C@](C)(O[C@@H]1O[C@H](CO)[C@@H](O)[C@H](O)[C@H]1O)[C@H]1CC[C@]2(C)[C@@H]1[C@H](O)C[C@@H]1[C@@]3(C)CC[C@H](O[C@@H]4O[C@H](CO)[C@@H](O)[C@H](O)[C@H]4O[C@@H]4O[C@H](CO)[C@@H](O)[C@H](O)[C@H]4O)C(C)(C)[C@@H]3CC[C@]12C [ginsenoside Rd]"
unit_tag = "µg"
value_measured = 0.005

[[record]]
compound = "CC(C)=CCC[C@](C)(O[C@@H]1O[C@H](CO[C@@H]2O[C@H](CO)[C@@H](O)[C@H](O)[C@H]2O)[C@@H](O)[C@H](O)[C@H]1O)[C@H]1CC[C@]2(C)[C@@H]1[C@H](O)C[C@@H]1[C@@]3(C)CC[C@H](O[C@@H]4O[C@H](CO)[C@@H](O)[C@H](O)[C@H]4O[C@@H]4O[C@H](CO)[C@@H](O)[C@H](O)[C@H]4O)C(C)(C)[C@@H]3CC[C@]12C [ginsenoside Rb1]"
unit_tag = "µg"
value_measured = 0.040

[[record]]
compound = "CC(C)=CCC[C@](C)(O[C@@H]1O[C@H](CO)[C@@H](O)[C@H](O)[C@H]1O)[C@H]1CC[C@]2(C)[C@@H]1[C@H](O)C[C@@H]1[C@@]3(C)CC[C@H](O)C(C)(C)[C@@H]3[C@@H](O[C@@H]3O[C@H](CO)[C@@H](O)[C@H](O)[C@H]3O)C[C@]12C [ginsenoside Rg1]"
unit_tag = "µg"
value_measured = 0.091

[[record]]
compound = "CC(C)=CCC[C@](C)(O[C@@H]1O[C@H](CO)[C@@H](O)[C@H](O)[C@H]1O)[C@H]1CC[C@]2(C)[C@@H]1[C@H](O)C[C@@H]1[C@@]3(C)CC[C@H](O)C(C)(C)[C@@H]3[C@@H](O[C@@H]3O[C@H](CO)[C@@H](O)[C@H](O)[C@H]3O[C@@H]3O[C@@H](C)[C@H](O)[C@@H](O)[C@H]3O)C[C@]12C [ginsenoside Re]"
unit_tag = "µg"
value_measured = 0.008


###

protocol-description: Fecal excretion study in rats after oral NS, SF or CNS (LC–MS/MS)
Assay type: in vivo
experimental-parameters: rat feces, oral NS 60 mg/kg, 24 h
readout: Excretion amount

[[record]]
compound = "CC(C)=CCC[C@](C)(O[C@@H]1O[C@H](CO[C@@H]2O[C@H](CO)[C@@H](O)[C@H](O)[C@H]2O)[C@@H](O)[C@H](O)[C@H]1O)[C@H]1CC[C@]2(C)[C@@H]1[C@H](O)C[C@@H]1[C@@]3(C)CC[C@H](O[C@@H]4O[C@H](CO)[C@@H](O)[C@H](O)[C@H]4O[C@@H]4O[C@H](CO)[C@@H](O)[C@H](O)[C@H]4O)C(C)(C)[C@@H]3CC[C@]12C [ginsenoside Rb1]"
value_measured = "31.223 ± 9.132 µg"


###

protocol-description: Urinary excretion study in rats after oral NS, SF or CNS (LC–MS/MS)
Type: in vivo
experimental-parameters: rat urine, oral CNS 110 mg/kg, 6 h
readout: Accumulative excretion amount (µg)

[[record]]
compound = "CC(C)=CCC[C@](C)(O[C@@H]1O[C@H](CO)[C@@H](O)[C@H](O)[C@H]1O)[C@H]1CC[C@]2(C)[C@@H]1[C@H](O)C[C@@H]1[C@@]3(C)CC[C@H](O)C(C)(C)[C@@H]3[C@@H](O[C@@H]3O[C@H](CO)[C@@H](O)[C@H](O)[C@H]3O)C[C@]12C [ginsenoside Rg1]"
value_measured = 3.994


###

protocol-description: Fecal excretion study in rats after oral NS, SF or CNS (LC–MS/MS)
Type: in vivo
experimental-parameters: male, Sprague Dawley; rat feces, oral NS 60 mg/kg, 48 h
readout: concentration at 48 h (ng/mL)

[[record]]
molecule = "CC(C)=CCC[C@](C)(O[C@@H]1O[C@H](CO)[C@@H](O)[C@H](O)[C@H]1O)[C@H]1CC[C@]2(C)[C@@H]1[C@H](O)C[C@@H]1[C@@]3(C)CC[C@H](O)C(C)(C)[C@@H]3[C@@H](O[C@@H]3O[C@H](CO)[C@@H](O)[C@H](O)[C@H]3O)C[C@]12C [ginsenoside Rg1]"
unit_tag = "ng/mL"
value_measured = 2080

[[record]]
molecule = "CC(C)=CCC[C@](C)(O[C@@H]1O[C@H](CO[C@@H]2O[C@H](CO)[C@@H](O)[C@H](O)[C@H]2O)[C@@H](O)[C@H](O)[C@H]1O)[C@H]1CC[C@]2(C)[C@@H]1[C@H](O)C[C@@H]1[C@@]3(C)CC[C@H](O[C@@H]4O[C@H](CO)[C@@H](O)[C@H](O)[C@H]4O[C@@H]4O[C@H](CO)[C@@H](O)[C@H](O)[C@H]4O)C(C)(C)[C@@H]3CC[C@]12C [ginsenoside Rb1]"
unit_tag = "ng/mL"
value_measured = 1020

[[record]]
molecule = "CC(C)=CCC[C@](C)(O[C@@H]1O[C@H](CO)[C@@H](O)[C@H](O)[C@H]1O)[C@H]1CC[C@]2(C)[C@@H]1[C@H](O)C[C@@H]1[C@@]3(C)CC[C@H](O)C(C)(C)[C@@H]3[C@@H](O[C@@H]3O[C@H](CO)[C@@H](O)[C@H](O)[C@H]3O[C@@H]3O[C@@H](C)[C@H](O)[C@@H](O)[C@H]3O)C[C@]12C [ginsenoside Re]"
unit_tag = "ng/mL"
value_measured = 561

[[record]]
molecule = "CC(C)=CCC[C@](C)(O[C@@H]1O[C@H](CO)[C@@H](O)[C@H](O)[C@H]1O)[C@H]1CC[C@]2(C)[C@@H]1[C@H](O)C[C@@H]1[C@@]3(C)CC[C@H](O[C@@H]4O[C@H](CO)[C@@H](O)[C@H](O)[C@H]4O[C@@H]4O[C@H](CO)[C@@H](O)[C@H](O)[C@H]4O)C(C)(C)[C@@H]3CC[C@]12C [ginsenoside Rd]"
unit_tag = "ng/mL"
value_measured = 704


###

protocol-description: Fecal excretion study in rats after oral NS, SF or CNS (LC–MS/MS)
Assay type: in vivo
experimental-parameters: male, Sprague Dawley; rat feces, oral CNS 110 mg/kg, 48 h
readout: concentration at 48 h (ng/mL)

[[record]]
molecule = "CC(C)=CCC[C@](C)(O[C@@H]1O[C@H](CO)[C@@H](O)[C@H](O)[C@H]1O)[C@H]1CC[C@]2(C)[C@@H]1[C@H](O)C[C@@H]1[C@@]3(C)CC[C@H](O)C(C)(C)[C@@H]3[C@@H](O[C@@H]3O[C@H](CO)[C@@H](O)[C@H](O)[C@H]3O)C[C@]12C [ginsenoside Rg1]"
value_measured = 943

[[record]]
molecule = "CC(C)=CCC[C@](C)(O[C@@H]1O[C@H](CO)[C@@H](O)[C@H](O)[C@H]1O)[C@H]1CC[C@]2(C)[C@@H]1[C@H](O)C[C@@H]1[C@@]3(C)CC[C@H](O[C@@H]4O[C@H](CO)[C@@H](O)[C@H](O)[C@H]4O[C@@H]4O[C@H](CO)[C@@H](O)[C@H](O)[C@H]4O)C(C)(C)[C@@H]3CC[C@]12C [ginsenoside Rd]"
value_measured = 658

[[record]]
molecule = "CC(C)=CCC[C@](C)(O[C@@H]1O[C@H](CO)[C@@H](O)[C@H](O)[C@H]1O)[C@H]1CC[C@]2(C)[C@@H]1[C@H](O)C[C@@H]1[C@@]3(C)CC[C@H](O)C(C)(C)[C@@H]3[C@@H](O[C@@H]3O[C@H](CO)[C@@H](O)[C@H](O)[C@H]3O[C@@H]3O[C@@H](C)[C@H](O)[C@@H](O)[C@H]3O)C[C@]12C [ginsenoside Re]"
value_measured = 354


###

In this section, each of the compounds is paired with its reported Excretion amount.
protocol-description: Urinary excretion study in rats after oral NS, SF or CNS (LC–MS/MS)
Assay type: in vivo
experimental-parameters: rat urine, oral NS 60 mg/kg, 4 h
Protocol: The animal room was set at constant temperature of 20 ± 2 °C with humidity of 50 ± 20% and 12/12 h light/dark cycle. Eighteen male rats were fasted for 12 h before starting the experiment. […] The urine volume was recorded and the dry feces were measured for each collection period. […] The accumulative excretion percentage was calculated for each analyte as follows. […]
readout: Excretion amount (µg)

[[record]]
compound = "CC(C)=CCC[C@](C)(O[C@@H]1O[C@H](CO)[C@@H](O)[C@H](O)[C@H]1O)[C@H]1CC[C@]2(C)[C@@H]1[C@H](O)C[C@@H]1[C@@]3(C)CC[C@H](O)C(C)(C)[C@@H]3[C@@H](O[C@@H]3O[C@H](CO)[C@@H](O)[C@H](O)[C@H]3O)C[C@]12C [ginsenoside Rg1]"
value_measured = 2.844

[[record]]
compound = "CC(C)=CCC[C@](C)(O[C@@H]1O[C@H](CO[C@@H]2O[C@H](CO)[C@@H](O)[C@H](O)[C@H]2O)[C@@H](O)[C@H](O)[C@H]1O)[C@H]1CC[C@]2(C)[C@@H]1[C@H](O)C[C@@H]1[C@@]3(C)CC[C@H](O[C@@H]4O[C@H](CO)[C@@H](O)[C@H](O)[C@H]4O[C@@H]4O[C@H](CO)[C@@H](O)[C@H](O)[C@H]4O)C(C)(C)[C@@H]3CC[C@]12C [ginsenoside Rb1]"
value_measured = 0.872

[[record]]
compound = "CC(C)=CCC[C@](C)(O[C@@H]1O[C@H](CO)[C@@H](O)[C@H](O)[C@H]1O)[C@H]1CC[C@]2(C)[C@@H]1[C@H](O)C[C@@H]1[C@@]3(C)CC[C@H](O)C(C)(C)[C@@H]3[C@@H](O[C@@H]3O[C@H](CO)[C@@H](O)[C@H](O)[C@H]3O[C@@H]3O[C@@H](C)[C@H](O)[C@@H](O)[C@H]3O)C[C@]12C [ginsenoside Re]"
value_measured = 0.129

[[record]]
compound = "CC(C)=CCC[C@](C)(O[C@@H]1O[C@H](CO)[C@@H](O)[C@H](O)[C@H]1O)[C@H]1CC[C@]2(C)[C@@H]1[C@H](O)C[C@@H]1[C@@]3(C)CC[C@H](O[C@@H]4O[C@H](CO)[C@@H](O)[C@H](O)[C@H]4O[C@@H]4O[C@H](CO)[C@@H](O)[C@H](O)[C@H]4O)C(C)(C)[C@@H]3CC[C@]12C [ginsenoside Rd]"
value_measured = 0.008

